# systemName: pooled human IgG (human IgG1, 2, 3 and 4)
readout: Enzyme Activity Endpoint Assay (purified): IgG (ng/µL)
Note: unit ng/µL is implicit; provide only the numeric part.

Past entries and their recorded results:
PRT-585 (protein) MANQEIRYSKATPSTITSVWTKGVTPPEQFIYNEDVLHAPYIANQGWYDITKTFNGKDDLLCGAATAGNMLHWWFDQNKEQIERYLKKHPEKQKINFNGEQMFDVKEAIDTKDSQTNSKLFEYFKDKAFPYLSTKHLGVFPDHVIDMFINGYRLSLTNHGPTPVKEQTKDPRGGIFDAVFTRGDQSKLLTSRHDFKEKTLNEISDLIKQELTEGKALGLSHTYANVRINHVINLWGADFNAEGNLEAIYVTDSDSNASIGMKKYYVGVNSAGKVAISAKEIEGDNIGAQVLGLFTLSTGQDIWEQTNLEHHHHHH :: 0
PRT-435 (protein) MSQTEDSESLQRLRDIEDFQAEKEKQNVVYTKWLDGVDVKDHDFRKIVDGNIAYYATPLLNGRGFYDINKDFNRDSDKCAAAVAANMFHYWLDRNRDNVDRFLRQNPEKHGIIELPDGQLKLSDFLNTYESDDGYRDKSKLFDFISNNFNGPVWTDKLLDNYINGYAYNYKYGRTIEDPTKNTSKINFFKEVFNEKILTNNHSIRNQNEFSVLLSEALYTGKAIGLSYGPAGLRHSLGHIISVWGADLDADGNVVAIYVTDSDDKKLTIGDERVGLKRYKISTDDEGRLRLTAYEETHNTGGQIRGLWTLDTGKQAWADYFDKTEQTGTDQAEQ :: 625
PRT-377 (protein) MVTSVWTKGVTPPTNFTYGEDVLHAPYVANQGWYDITKTFNGKDDLLCGAATAGNMLHWWFDQNKEQIENYLKKHPEKQKINFNGEQMFDVKEAIDTKDSQLDSKLFEYFLEKAFPYLSTKHLGVFPDHVIDMFINGYRLSLTNHGPTPVKRGSKDPRGGIFDAVFTRGDQSKLLTNRHDFKEKTLKEISDLIKQELTEGKALGISHTYANVRINHVINLWGADFDAEGNLEAIYVTDSDSNASIGMKKYFVGVNSNGKVAISAKEIEEDNIGAQVLGLFTLSTGQDIWNQTN :: 0

Please turn your attention to the following entry.
Request: Using the record for PRT-429 (protein) MTITSVWTKGVTPPTPEDFRYNNEDVLHAPYVANQGWYDITKTFDGKDNLLCGAATAGNMLHWWFDQNKEEIERYLKKHPEKQKIIFNNQELFDVKAAIDTKDSQTNSKLFNYFRDKAFPNLSARQLGVMPDLVLDMFINGYYLNLGKTQSTDVNRPYQDKDKRGGIFDAVFTRGDQTTLLTARHDLKNKGLNEISDLIKQELTEGKALALSHTYANVRINHVINLWGADFDAEGNLIAIYVTDSDARASIGMKKYFVGVNANGKVAISAKKIEGDNIGAQVLGLFTLSTGQDIWQKLS , state its measured Enzyme Activity Endpoint Assay (purified): IgG.
Result: 57
